pKi tested on CSP3 (Chilo suppressalis, UniProt V9PY40): recorded values
Sequence (V9PY40 19-126): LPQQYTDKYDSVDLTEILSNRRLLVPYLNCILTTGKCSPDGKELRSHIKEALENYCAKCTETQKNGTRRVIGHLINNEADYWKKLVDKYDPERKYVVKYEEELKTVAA
pKi here is simply -log10 of the concentration when that concentration is written in mol/L.

Q: Reported pKi for `CCCC/C=C\CCCCCCCCCCCC=O` : what is it?
Ans: 4.65

Q: Reported pKi for `CCCCCC/C=C\CCCCCCCC=O` : what is it?
Ans: 5.05

Q: Reported pKi for `CCCC/C=C\CCCCCCCCCC=O` : what is it?
Ans: 5.21

---

# target under test: CSP1 (Chilo suppressalis, UniProt V9PY22)
# Sequence (V9PY22 18-122): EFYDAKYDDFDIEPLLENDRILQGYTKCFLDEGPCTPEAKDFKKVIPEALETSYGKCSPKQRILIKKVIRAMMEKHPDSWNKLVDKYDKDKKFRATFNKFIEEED
Could you please report measured IC50 for the items listed next?

Q: Request body: readout IC50, system CSP1 (Chilo suppressalis, UniProt V9PY22), query CC/C=C\CCO [Z3-Hexenol] . Return the value.
Ans: > 30 µM

Q: Request body: readout IC50, system CSP1 (Chilo suppressalis, UniProt V9PY22), query C=CC(C)=CCC=C(C)C [Ocimene] . Return the value.
Ans: > 30 µM

Q: Request body: readout IC50, system CSP1 (Chilo suppressalis, UniProt V9PY22), query CCCCCC/C=C\CCCCCCCC=O [Z9-Hexadecenal] . Return the value.
Ans: 17.4 µM

Q: Request body: readout IC50, system CSP1 (Chilo suppressalis, UniProt V9PY22), query CCC/C=C\C=O [Z2-Hexenal] . Return the value.
Ans: 15.8 µM

Q: Request body: readout IC50, system CSP1 (Chilo suppressalis, UniProt V9PY22), query CCC/C=C/CO [E2-hexenol] . Return the value.
Ans: > 30 µM

Q: Request body: readout IC50, system CSP1 (Chilo suppressalis, UniProt V9PY22), query CCCCCCCCCCCC=O [Laurinaldehyde] . Return the value.
Ans: 11.8 µM

Q: Request body: readout IC50, system CSP1 (Chilo suppressalis, UniProt V9PY22), query CCCCCCCCCCCC(=O)O [Lauric acid] . Return the value.
Ans: > 30 µM

Q: Request body: readout IC50, system CSP1 (Chilo suppressalis, UniProt V9PY22), query CCCC/C=C\CCCCCCCCCCCC=O [Z13-Octadecenal] . Return the value.
Ans: > 30 µM

Q: Request body: readout IC50, system CSP1 (Chilo suppressalis, UniProt V9PY22), query CCC/C=C/C=O [E2-Hexenal] . Return the value.
Ans: > 30 µM

Q: Request body: readout IC50, system CSP1 (Chilo suppressalis, UniProt V9PY22), query CC/C=C\CCO [E3-Hexenol] . Return the value.
Ans: > 30 µM

Q: Request body: readout IC50, system CSP1 (Chilo suppressalis, UniProt V9PY22), query CCC/C=C/COC(C)=O [E2-Hexenyl acetate] . Return the value.
Ans: > 30 µM

Q: Request body: readout IC50, system CSP1 (Chilo suppressalis, UniProt V9PY22), query CC/C=C\CCOC(C)=O [Z3-Hexenyl acetate] . Return the value.
Ans: > 30 µM

Q: Request body: readout IC50, system CSP1 (Chilo suppressalis, UniProt V9PY22), query CCCC/C=C\CCCCCCCCCC=O [Z11-Hexadecenal] . Return the value.
Ans: 20.9 µM

Q: Request body: readout IC50, system CSP1 (Chilo suppressalis, UniProt V9PY22), query CCOC(=O)c1ccccc1 [Ethyl benzoates] . Return the value.
Ans: > 30 µM

---

# target under test: CSP2
# Type: binding, Chilo suppressalis
# test parameters: read-out: CSP2 Ki; competitive binding with 1-NPN
test readout: Ki (µM)
Unit µM implied. Number only.

Q: Reported Ki for `CCCCC/C=C\C/C=C\CCCCCCCC(=O)O` : what is it?
Ans: 17.7

Q: Reported Ki for `CCCC/C=C\CCCCCCCCCC=O` : what is it?
Ans: 8.89

Q: Reported Ki for C[C@@H]1CC[C@H]2C(C)(C)[C@H]3C[C@@]12CC[C@@]3(C)O [(+)-Cedrol] : what is it?
Ans: 9.22

Q: Reported Ki for `CCCC/C=C\CCCCCCCCCCCC=O` : what is it?
Ans: 17.2

Q: Reported Ki for `CCCCCCCCCCCC=O` : what is it?
Ans: 16.6

Q: Reported Ki for `CCCCCCCCCCCCCC(C)=O` : what is it?
Ans: 20.3

---

pIC50 tested on CSP3 (Chilo suppressalis): recorded values
pIC50: −log10 of the molar value.

Q: Reported pIC50 for CC/C=C\CCOC(C)=O [Z3-Hexenyl acetate] : what is it?
Ans: < 4.52

Q: Reported pIC50 for CCC/C=C/COC(C)=O [E2-Hexenyl acetate] : what is it?
Ans: < 4.52

Q: Reported pIC50 for CCC/C=C/CO [E2-hexenol] : what is it?
Ans: < 4.52

Q: Reported pIC50 for CCOC(=O)c1ccccc1 [Ethyl benzoates] : what is it?
Ans: < 4.52

Q: Reported pIC50 for CCCC/C=C\CCCCCCCCCCCC=O [Z13-Octadecenal] : what is it?
Ans: 4.60

Q: Reported pIC50 for CCCCCC/C=C\CCCCCCCC=O [Z9-Hexadecenal] : what is it?
Ans: 5.00

Q: Reported pIC50 for C=CC(C)=CCC=C(C)C [Ocimene] : what is it?
Ans: < 4.52

Q: Reported pIC50 for CCCC/C=C\CCCCCCCCCC=O [Z11-Hexadecenal] : what is it?
Ans: 5.16

Q: Reported pIC50 for CC/C=C\CCO [E3-Hexenol] : what is it?
Ans: < 4.52
